- System: HL-60(TB) leukemia
- Test: NCI-60 one-dose screen, 48 h
- Run Conditions: 10 µM unless noted
The panel holds about 83,000 compounds, 20% with a hit somewhere; the sample as a whole holds those more often. Active and inactive are the calls of the source. The calls were made as follows: active = growth percent below 10; inactive = the rest.
# valid calls are True = active, False = inactive; nothing else

Q. In this assay, the call recorded for CC(=O)c1nnn(-c2c(C(=O)n3nc(C)cc3C)sc(=S)n2-c2ccccc2)c1C was what?
A. False

Q. In this assay, the call recorded for C#Cc1nc(C2=C(C)/C(=N/OCc3ccccc3)CC2)cs1 was what?
A. True

Q. In this assay, the call recorded for CC(=O)NC(C)(C)C(=O)N1CCC[C@H]1C(=O)NC(C)(C)C(=O)N[C@@H](C)C(=O)NC(C)(C)C(=O)NC(C)(C)C(=O)N[C@@H](CCC(N)=O)C(=O)NC(C)(C)C(=O)N[C@H](C(=O)NC(C)(C)C(=O)NCC(=O)N[C@@H](CC(C)C)C(=O)NC(C)(C)C(=O)N1CCC[C@H]1C(=O)N[C@H](C(=O)NC(C)(C)C(=O)NC(C)(C)C(=O)N[C@@H](CCC(N)=O)C(=O)N[C@@H](CCC(N)=O)C(=O)N[C@H](CO)Cc1ccccc1)C(C)C)C(C)C was what?
A. True

Q. In this assay, the call recorded for O=c1/c(=C\c2ccc(-c3ccccc3)o2)sc2nc(-c3ccccc3)nn12 was what?
A. False

Q. In this assay, the call recorded for Cn1ccnc1C(=O)/C=C/c1ccc(NC(=O)c2ccc(F)cc2)cc1 was what?
A. False

Q. In this assay, the call recorded for CCC(CC)N1C(=O)/C(=c2\sc3n(c2=O)NC2C(N=3)N(CC)C(=O)N2CC)c2ccccc21 (stereo unspecified) was what?
A. False

====

- Test system: OVCAR-4 ovarian
- Test: NCI-60 one-dose screen, 48 h (100 = growth as untreated, 0 = no growth, -100 = all killed)
- Run Conditions: 10 µM
The panel holds about 83,000 compounds, 20% with a hit somewhere; the sample as a whole holds those more often.
Classify as follows. Reported growth greater than or equal to 20%: fulfilled. Reported growth below: not fulfilled.

Would you please look over these solved cases?
{"Compound": "NC1CCc2cc(O)c(O)cc2C1 (stereo unspecified)", "Answer Label": "fulfilled"}
{"Compound": "CC1=C2C(=C[C@@](C)(C=O)[C@@H]2O)C(=O)[C@](C)(O)C12CC2", "Answer Label": "not fulfilled"}
{"Compound": "Cc1ccc(CNc2nc3ccc(OC/C(=C/F)CN)cc3o2)cn1", "Answer Label": "fulfilled"}
{"Compound": "C[C@@H]1CCC/C=C/[C@H]2C[C@@H](O)C[C@@H]2[C@@H](O)/C=C/C(=O)O1", "Answer Label": "fulfilled"}
{"Compound": "CC(C)(O)/C=C/C(=O)[C@](C)(O)[C@H]1[C@H](O)C[C@@]2(C)[C@H]3CC=C4[C@@H](C[C@H](O)C(=O)C4(C)C)[C@]3(C)C(=O)C[C@]12C", "Answer Label": "not fulfilled"}
{"Compound": "CC1=C(CN(O)C(N)=O)C2=C(C)C3(CC3)[C@](C)(O)C(=O)C2=C1", "Answer Label": "not fulfilled"}
{"Compound": "CC1=C[C@H]2O[C@@H]3C[C@@H](O)[C@](C)([C@@]2(C)CC1)[C@@]31CO1", "Answer Label": "fulfilled"}
{"Compound": "COc1cc(OC)c(S(=O)(=O)N(CCCl)CCCl)cc1C(=O)/C=C/c1ccc(Cl)cc1", "Answer Label": "fulfilled"}

Q. Kindly determine if growth recorded for CC1=C2C(=O)[C@](C)(CO)C=C2C(=O)[C@](C)(O)C12CC2 is above or exactly 20%.
A. fulfilled

Q. Kindly determine if growth recorded for O=C(CCCc1ccc(N(CCCl)CCCl)cc1)OCc1ccccc1 is above or exactly 20%.
A. fulfilled

====

- Test system: LOX IMVI melanoma
- Test: NCI-60 one-dose screen, 48 h (100 = growth as untreated, 0 = no growth, -100 = all killed)
- Run Conditions: 10 µM
This is part of a sample that, as a whole, favours compounds with a hit. Of some 83,000 tested, about 20% had one in any assay.
Outcome Measure: growth (%)
One number for each entry, in %.

{"Compound": "CC1=C[C@H]2O[C@@H]3C[C@@H](O)[C@](C)([C@@]2(C)CC1)[C@@]31CO1", "growth (%)": 13.6}
{"Compound": "COc1cc2c(O[C@@H]3OC[C@H](O)[C@H](O)[C@H]3O)c3c(c(-c4ccc5c(c4)OCO5)c2cc1OC)C(=O)OC3", "growth (%)": -57.7}

Hello, I would appreciate it if you could give growth for each entry below.
1. CC1=C2C(=C[C@@](C)(COC(=O)c3ccc(S(=O)(=O)F)cc3)[C@@H]2OC(=O)c2ccc(S(=O)(=O)F)cc2)C(=O)[C@](C)(O)C12CC2
2. CCC(C)[C@H]1C(=O)O[C@H](C(C)C)C(=O)N(C)[C@@H](C(C)C)C(=O)O[C@H](C(C)C)C(=O)N(C)[C@@H](C(C)C)C(=O)O[C@H](C(C)C)C(=O)N1C (some centres undefined)

A.
[6.84, 9.79]

====

- Test system: HL-60(TB) leukemia
- Test: NCI-60 one-dose screen, 48 h (100 = growth as untreated, 0 = no growth, -100 = all killed)
- Run Conditions: 10 µM unless noted
The panel holds about 83,000 compounds, 20% with a hit somewhere; the sample as a whole holds those more often.
Provide the reported growth of each item.
Give bare numbers, in %.

{"Input Smiles": "COc1ccc(OC)c(NC(=O)CCCCCCNC(=O)C(O)(O)C(F)(F)F)c1", "growth / %": 10.6}
{"Input Smiles": "Cc1[nH]c(C(=O)Nc2ccc(S(=O)(=O)N3CCCCC3)cc2OCCOCCOCCOCCOCCOCCOCCOCCOCCOc2cc(S(=O)(=O)N3CCCCC3)ccc2NC(=O)c2[nH]c(C)c3c2CCCCC3=O)c2c1C(=O)CCCC2", "growth / %": 10.7}
{"Input Smiles": "COc1cccc2c1cc([N+](=O)[O-])c1c(C(=O)O)cc3c(c12)OCO3", "growth / %": 105}
{"Input Smiles": "C/C(=N\\NC(N)=O)c1c(O)sc(=O)[nH]c1=O", "growth / %": 96.2}
{"Input Smiles": "COc1ccc(-c2nc3cc(Cl)c(Cl)cc3n2CC(=O)N=Nc2c(O)[nH]c3ccc(OC)cc23)cc1", "growth / %": 86.3}
{"Input Smiles": "Cc1ccc(/C=C/c2nn3c(-c4ccco4)nnc3s2)cc1C", "growth / %": 91.4}
{"Input Smiles": "O=C(CCCCCCNC(=O)C(O)(O)C(F)(F)F)Nc1nc2ccccc2s1", "growth / %": 11.3}
{"Input Smiles": "O=S(=O)(NCCCNc1nccc(-c2[nH]c(-c3ccccc3)nc2-c2ccc(F)c(O)c2)n1)c1ccccc1", "growth / %": 90.6}
{"Input Smiles": "O=C(Nc1cccc(Cl)c1)Nc1nc2cc([N+](=O)[O-])ccc2o1", "growth / %": 52.7}
{"Input Smiles": "O=C(CCCCCCN1CC(=O)N2[C@@H](c3ccc(Cl)c(F)c3)c3[nH]c4ccccc4c3C[C@H]2C1=O)NO", "growth / %": 85.1}

Hello, I would appreciate it if you could give growth for each entry below.
1. NC(N)=Nc1ccc(Oc2cccc(Oc3ccc(Cl)c(C(F)(F)F)c3)c2)cn1
2. COc1cc(OC)c(/C=C/S(=O)(=O)Cc2ccc(OC)c(NC(=O)CCC(=O)NO)c2)c(OC)c1
3. NC(N)=Nc1ccc(Nc2cccc(Oc3ccc(Cl)c(C(F)(F)F)c3)c2)cn1
4. N#C/C(=C\c1ccc(-c2ccc(Cl)c(Cl)c2)o1)C(=O)Nc1ncc(Cc2ccc(Cl)cc2)s1
5. CCOC(=O)c1c(NC(=O)c2ccc(C(F)(F)F)cc2)sc2c3c(ccc12)OCN(C)C3
6. COc1ccc(C(=O)c2c(N)c(C#N)cn2-c2ccccc2OC)cc1

A.
1. -69
2. -10.8
3. -67.4
4. 51.5
5. -27.6
6. -7.7

Hello, I would appreciate it if you could give growth for each entry below.
1. CS(=O)(=O)Nc1cc(-c2ccc3ncc(C#N)c(NCc4cccc(F)c4)c3c2)cnc1Cl
2. CS(=O)(=O)c1ccc(-c2nn(-c3ccccc3)cc2/C=C/C(=O)c2ccc(Br)cc2)cc1

A.
1. 4.11
2. 51.9

====

- Test system: HL-60(TB) leukemia
- Test: NCI-60 one-dose screen, 48 h (100 = growth as untreated, 0 = no growth, -100 = all killed)
- Run Conditions: 10 µM unless noted
This is part of a sample that, as a whole, favours compounds with a hit. Of some 83,000 tested, about 20% had one in any assay.
Classify as follows. Reported growth greater than or equal to 40%: 1. Reported growth below: -1.

Would you please look over these solved cases?
{"Molecule": "O=C(Cn1cc[n+](CC(=O)c2ccc(-c3ccccc3)cc2)c1)Nc1cccc2cccnc12", "Answer Label": -1}
{"Molecule": "COc1cc(N=Cc2sc(Nc3nccs3)nc2O)cc(OC)c1OC", "Answer Label": 1}
{"Molecule": "CC[C@H](C)[C@H]1NC(=O)[C@@H]([C@H](O)C(C)C)NC(=O)[C@@H](C)N(C)C(=O)[C@H](C)N(C)C(=O)[C@H](CC(C)C)NC(=O)[C@H](CC(C)C)N(C)C(=O)[C@H](C)N(C)C1=O", "Answer Label": -1}

Q. Kindly determine if growth recorded for CC(=O)OC[C@]12CC[C@@H](C(=O)/C=C/c3cccnc3)[C@@H]1[C@H]1CC[C@@H]3[C@@]4(C)CC[C@H](OC(C)=O)C(C)(C)[C@@H]4CC[C@@]3(C)[C@]1(C)CC2 is above or exactly 40%.
A. -1

Q. Kindly determine if growth recorded for C/C=C/[C@@H]1C=C[C@@H]2C[C@H](C)CC[C@H]2[C@]1(C)/C(O)=C1/C(=O)[C@H](CO)N(C)C1=O is above or exactly 40%.
A. 1

Q. Kindly determine if growth recorded for Clc1ccc(CSc2nnc(-c3ccc(Cl)cc3)n2-c2ccccc2)cc1 is above or exactly 40%.
A. 1

Q. Kindly determine if growth recorded for N#CC1=C2NCCCNc3oc(nc3C#N)Cc3ccccc3CC(=N1)O2 is above or exactly 40%.
A. 1

Q. Kindly determine if growth recorded for C#C[C@]1(O)CC[C@H]2[C@@H]3CC=C4c5sc(Nc6cc(Cl)ccc6OC)nc5CC[C@]4(C)[C@H]3CC[C@@]21C is above or exactly 40%.
A. -1

Q. Kindly determine if growth recorded for Cn1cc(-c2nn3cc(-c4ccncc4)nc3s2)c2cc(Br)ccc21 is above or exactly 40%.
A. -1

Q. Kindly determine if growth recorded for Brc1cccc(-c2cc(-c3ccc4c(c3)OC=CO4)[nH]n2)c1 is above or exactly 40%.
A. -1

Q. Kindly determine if growth recorded for CC1(C)CC[C@]2(C(=O)O)CC[C@]3(C)C(=CCC4[C@@]5(C)C[C@@H](O)[C@@H]6OC(c7cccc([N+](=O)[O-])c7)OC[C@@]6(C)C5CC[C@]43C)C2C1 (some centres not stated) is above or exactly 40%.
A. 1

Q. Kindly determine if growth recorded for Cc1cccc2c3c(sc12)C(c1ccc(Cl)cc1)c1c(nc(CC(=O)Nc2ccccc2)[nH]c1=O)O3 (configuration not stated) is above or exactly 40%.
A. 1
